Reference for the values: patent US12195473B2

ASSAY_REMARKS: Dog pharmacokinetic study
Type: in vivo, beagle dog
RUN_CONDITIONS: plasma; beagle dog, female, 1 mg/kg, iv
Each entry below lists one item and its recorded clearance value.
MEASURE_NAME: clearance (mL/min/kg)

• C=CC(=O)N1CCN(c2c(C#N)c(=O)n(-c3c(C)ccnc3C(C)C)c3nc(-c4ccccc4F)c(Cl)cc23)CC1 [Amgen 6] = 15.5
• C=CC(=O)N1CCN(c2c(C#N)c(=O)n(-c3c(C(C)C)ncnc3C(C)C)c3nc(-c4c(N)cccc4F)c(Cl)cc23)CC1 [Amgen 6.3] = 329

* * *

System: HIS-KRAS (G12C)
Format: biochemical
RUN_CONDITIONS: GDP-loaded HIS-KRAS (G12C), 1 hour pre-incubation with compound, TR-FRET; read-out: SOS1 catalyzed nucleotide exchange IC50
MEASURE_NAME: IC50 (nM)

- C=CC(=O)N1CCN(c2c(C#N)c(=O)n(-c3c(C)ccnc3C(C)C)c3nc(-c4c(N)c(Cl)c(F)c(Cl)c4F)c(Cl)cc23)CC1 [Compound 4]: 3.48
- C=CC(=O)N1CCN(c2c(C#N)c(=O)n(-c3c(C)ccnc3C(C)C)c3nc(-c4c(Cl)c(N)c(F)c(F)c4Cl)c(Cl)cc23)CC1 [Compound 2]: 6.66
- C=CC(=O)N1CCN(c2c(C#N)c(=O)n(-c3c(C)ccnc3C(C)C)c3nc(-c4c(N)c(F)c(F)c(F)c4Cl)c(Cl)cc23)C[C@H]1C (single isomer, unassigned) [Compound 10-2]: 4.16
- C=CC(=O)N1CCN(c2c(C#N)c(=O)n(-c3c(C)ccnc3C(C)C)c3nc(-c4c(F)c(F)c(F)c(N)c4Cl)c(Cl)cc23)CC1 (single isomer, unassigned) [Compound 12-1]: 16
- C=CC(=O)N1CCN(c2c(C#N)c(=O)n(-c3c(C)ccnc3C(C)C)c3nc(-c4c(F)c(F)c(F)c(N)c4Cl)c(Cl)cc23)[C@@H](C)C1 (single isomer, unassigned) [Compound 15-1]: 6.87
